The measured values listed here are drawn from ChEMBL document CHEMBL1817665.

system: Mycobacterium tuberculosis; assay: Antituberculosis activity against Mycobacterium tuberculosis H37Rv at 250 ug/mL after 24 hrs by Lowenstein-Jensen method; format: functional
property name: inhibition at 250 µg/mL
Number first, unit second: that is the form wanted.

Here is how some compounds turned out for inhibition at 250 µg/mL.
>  <line notation>
Cc1ccc2nc(Oc3ccc(Cl)cc3)c(C=O)cc2c1

>  <experimental value>
93%

$$$$
>  <line notation>
O=Cc1cc2ccccc2nc1Oc1ccccc1

>  <experimental value>
95%

$$$$
>  <line notation>
Cc1ccc(Oc2nc3ccc(C)cc3cc2C=O)cc1

>  <experimental value>
84%

$$$$
>  <line notation>
COc1ccc2nc(Oc3ccc(C)cc3)c(C=O)cc2c1

>  <experimental value>
23%

$$$$
>  <line notation>
COc1ccc2nc(Oc3ccc(Cl)cc3)c(C=O)cc2c1

>  <experimental value>
54%

$$$$

Incoming: Please give the measured inhibition at 250 µg/mL for this compound: Cc1ccc2nc(Oc3ccccc3)c(C=O)cc2c1
Outgoing: 62%

Incoming: So what does the record say about inhibition at 250 µg/mL for O=Cc1cc2ccccc2nc1Oc1ccc(Cl)cc1 ?
Outgoing: 64%

Incoming: What value of inhibition at 250 µg/mL has been recorded for this entry: COc1ccc2nc(Oc3ccccc3)c(C=O)cc2c1
Outgoing: 42%

Incoming: Given the compound Cc1ccc(Oc2nc3ccccc3cc2C=O)cc1 , what is its reported inhibition at 250 µg/mL?
Outgoing: 74%

---

test system: Vibrio cholerae; assay: Antibacterial activity against 10^8 CFU/mL Vibrio cholerae MTCC 3906 by NCCLS M100-S12(M7) broth microdilution method; assay type: functional
property name: MIC99 (µg/mL)
Could you give me the number in µg/mL? Just the number is fine.

Below: 8 molecules and their reported MIC99.
>  <line notation>
COc1ccc2nc(Oc3ccc(Cl)cc3)c(C=O)cc2c1

>  <scale unit>
µg/mL

>  <MIC99>
200

$$$$
>  <line notation>
O=Cc1cc2ccccc2nc1Oc1ccccc1

>  <scale unit>
µg/mL

>  <MIC99>
500

$$$$
>  <line notation>
COc1ccc2nc(Oc3ccc(C)cc3)c(C=O)cc2c1

>  <scale unit>
µg/mL

>  <MIC99>
500

$$$$
>  <line notation>
Cc1ccc(Oc2nc3ccccc3cc2C=O)cc1

>  <scale unit>
µg/mL

>  <MIC99>
250

$$$$
>  <line notation>
O=Cc1cc2ccccc2nc1Oc1ccc(Cl)cc1

>  <scale unit>
µg/mL

>  <MIC99>
500

$$$$
>  <line notation>
Cc1ccc2nc(Oc3ccc(Cl)cc3)c(C=O)cc2c1

>  <scale unit>
µg/mL

>  <MIC99>
500

$$$$
>  <line notation>
Cc1ccc(Oc2nc3ccc(C)cc3cc2C=O)cc1

>  <scale unit>
µg/mL

>  <MIC99>
200

$$$$
>  <line notation>
COc1ccc2nc(Oc3ccccc3)c(C=O)cc2c1

>  <scale unit>
µg/mL

>  <MIC99>
200

$$$$

Incoming: Reported MIC99, molecule Cc1ccc2nc(Oc3ccccc3)c(C=O)cc2c1 : ____
Outgoing: 250

Incoming: Name the recorded MIC99 for CC1(C)S[C@@H]2[C@H](NC(=O)[C@H](N)c3ccccc3)C(=O)N2[C@H]1C(=O)O .
Outgoing: 100

---

system: Candida albicans; test: […] activity against 10^8 CFU/mL Candida albicans MTCC 227 by NCCLS M100-S12(M7) broth microdilution method; format: functional
property name: MIC99 (µg/mL)
The answer is to be given in µg/mL; state only the numeric part.

Incoming: For the compound Cc1ccc(Oc2nc3ccccc3cc2C=O)cc1 , what MIC99 is on record?
Outgoing: 500

Incoming: For the compound shown here, COc1ccc2nc(Oc3ccc(C)cc3)c(C=O)cc2c1 , give the reported MIC99.
Outgoing: 250

Incoming: Sample COc1ccc2nc(Oc3ccc(Cl)cc3)c(C=O)cc2c1 — what was its MIC99?
Outgoing: 500

---

test system: Candida albicans; test: […] activity against 10^8 CFU/mL Candida albicans MTCC 227 by NCCLS M100-S12(M7) broth microdilution method; assay type: functional
This section presents compounds with their documented MIC99 values.
API: value field is a number in µg/mL; no unit string.

Worked cases, MIC99 given:
>  <line notation>
Cc1ccc(Oc2nc3ccc(C)cc3cc2C=O)cc1

>  <MIC99 / µg/mL>
500

$$$$
>  <line notation>
COC1=CC(=O)C[C@@H](C)[C@]12Oc1c(Cl)c(OC)cc(OC)c1C2=O

>  <MIC99 / µg/mL>
500

$$$$
>  <line notation>
COc1ccc2nc(Oc3ccccc3)c(C=O)cc2c1

>  <MIC99 / µg/mL>
1000

$$$$
>  <line notation>
Cc1ccc2nc(Oc3ccc(Cl)cc3)c(C=O)cc2c1

>  <MIC99 / µg/mL>
500

$$$$
>  <line notation>
Cc1ccc2nc(Oc3ccccc3)c(C=O)cc2c1

>  <MIC99 / µg/mL>
250

$$$$

Incoming: Quick check: MIC99 of O=Cc1cc2ccccc2nc1Oc1ccc(Cl)cc1 ?
Outgoing: 250
